This collection of values is drawn from patent US9868746B2.

Molecular target: mAChR M4 (Homo sapiens, UniProt P08173)
Construct: expressed in transfected cells; host or cells: CHO-K1 cells stably transfected with M4 cDNA and chimeric G-protein Gqi5
Sequence (P08173 1-479): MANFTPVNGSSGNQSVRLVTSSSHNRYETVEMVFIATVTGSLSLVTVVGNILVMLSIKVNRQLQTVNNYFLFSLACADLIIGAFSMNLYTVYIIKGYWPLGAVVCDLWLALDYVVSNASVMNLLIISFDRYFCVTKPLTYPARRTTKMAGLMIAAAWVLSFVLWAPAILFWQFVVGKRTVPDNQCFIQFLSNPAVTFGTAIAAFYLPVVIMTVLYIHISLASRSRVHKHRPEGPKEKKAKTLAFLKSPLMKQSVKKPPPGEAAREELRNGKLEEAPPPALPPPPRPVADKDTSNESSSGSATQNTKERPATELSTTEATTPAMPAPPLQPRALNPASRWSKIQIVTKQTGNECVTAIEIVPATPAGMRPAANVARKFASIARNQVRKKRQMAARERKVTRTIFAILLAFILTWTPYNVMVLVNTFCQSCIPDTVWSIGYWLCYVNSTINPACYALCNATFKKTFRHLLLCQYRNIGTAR
Experiment: mAChR M4 cell-based functional assay (calcium mobilization, potentiation of EC20 acetylcholine response)
Details: % ACh maximum at 30 μM
Each record's Emax at 30 µM is compared with group 1 = under 60%, group 2 = from 60% up to 70%, group 3 = 70% and over to give its class.

molecule	assigned category
Cc1nnc2sc(C(=O)NC3CN(C(=O)c4ccc5ccccc5c4)C3)c(N)c2c1C	group 3
Cc1nnc2sc(C(=O)NCc3ccc(S(=O)(=O)C(C)(F)F)cc3)c(N)c2c1C	group 2

[in] Assign a category based on measured Emax at 30 µM for `Cc1nnc2sc(C(=O)N3CC(F)(C4CCCCC4)C3)c(N)c2c1C` and give only the class name.
[out] group 2

[in] Assign a category based on measured Emax at 30 µM for `Cc1nnc2sc(C(=O)NC3CN(S(=O)(=O)c4ccc5ncccc5c4)C3)c(N)c2c1C` and give only the class name.
[out] group 3

[in] Assign a category based on measured Emax at 30 µM for COc1ccc(C2CC2N(C)C(=O)c2sc3nnc(C)c(C)c3c2N)cc1 (stereo not drawn) and give only the class name.
[out] group 1
